Hello, the source for this data is ChEMBL document CHEMBL5223136, in case you need it.

# TEST_PROTOCOL: Metabolic stability in human hepatocytes assessed as intrinsic clearance and measured upto 60 mins in presence of NADPH by LC-MS/MS analysis
# Format: ADME, cell-based, Hepatocyte
# EXPERIMENTAL_CONTEXT: read-out: CLH
Exercise: state measured CLint scaled for each of the compounds provided.

O=C1CCC(N2Cc3ccccc3C2=O)C(=O)N1 (stereo not drawn); < 9.6 mL/min/kg

I'm hoping you can list CLint scaled for every compound here, please.
1. O=C1CCC(N2Cc3ccc(OS(=O)(=O)F)cc3C2=O)C(=O)N1 (stereo not drawn)
2. O=C1CCC(N2Cc3ccc(S(=O)(=O)F)cc3C2=O)C(=O)N1 (stereo not drawn)

## Output
["< 9.6 mL/min/kg", "< 9.6 mL/min/kg"]

====

# TEST_PROTOCOL: Metabolic stability in human plasma assessed as half life and measured upto 240 mins by LC-MS/MS analysis
# Type: ADME, cell-free
QUANTITY_KIND: half-life (h)
Answers are plain numbers, in h.

## Input Provide half-life value for the following molecule: O=C1CCC(N2Cc3ccccc3C2=O)C(=O)N1 (stereo unspecified)
## Output 1.98
